Parameter: % parasite recognition. Scope: all listed entries.
subject-of-test: erythrocytes infected with P. falciparum field isolate 11014
assay-info: flow cytometry, staining of IEs
reported-property: % parasite recognition

>>> meas_value("MGD34 (antibody) VH: EVQLVESGPGLMKTSGTLSLTCAVSGDYVNTNRRWSWVRQAPGKGLEWIGEVHQSGRTNYNPSLKSRVTISVDKSKNQFSLKVDSVTAADTAVYYCARASPLKSQRDTEDLPRPSISAEPGTVIPLGSHVTFVCRGPVGVQTFRLERERNYLYSDTEDVSQTSPSESEARFRIDSVNAGNAGLFRCIYYKSRKWSEQSDYLELVVKGEDVTWALSQSQVDPRACPQGELPISTDIYYVDVWGNGTTFTVSS VL: AIRMTQSPSSLSASPGDKVSITCRASQHINDSLAWFQQRPGKAPKLLIYGASNLHSGVPSRFSGTGSGTDFTLTITGLQSEDFATYFCQQCNCFPPDFGQGTRLEIK")
"13%"
>>> meas_value("MGD55 (antibody) VH: QVQLQESGPGLVKPSGTLSLTCTVSGGSISAYKWWSWVRQAPGKGLEWIGQVYHNGNTNYNPSLKGRVAMSVDKSKNRFSLRLASVTAADTAVYYCATISPLRPQSDTDDLPRPSISAEPGTVIPLGSHVTFVCRGPIGVQTFRLERESRSLYSDTEDVSQVSPFASEARFRIDSVSEGNAGPYRCIYYKDRKWSDQSDYLELLVKGEDVTWALPQSQLAPRACPQEELNISTDIFSMNVWGKGTTVTVSS VL: AIRMTQSPASLSASIGDRVTITCRTSQDVGNYLDWYQQKPGKAPKLLIHGASTLQTGVPSRFSGSGAGTDFTLNITCLQSGDFAMYYCQQYYSSPPGFGQGTRLEIK")
"14.7%"
>>> meas_value("MGC32 (antibody) VH: EVQLVESGGGLVQPGGSLRLSCVASGFNFRKSWMGWVRQAPGKGLEWVANIREDGSESFYADSVKGRFTVSRDNAKKSLYLHINSLRAEDTAVYYCARDRFCNDDEIHRHGQEDLPRPSISAAEGTVIPLGSHVTFVCRGPVGVQTFRLEKDSRSIYNDTENVSQPSPSESEARFRIDSVSEGNAGLYRCVYYKAPKWSAQSDYLELLVKGQEVTWALFTSCGGDGEEPDYDMDVRGKGTTVTVSS VL: DILMTQSPDSLAVSLGERATINCKSSQSVLYRSKNKNYLAWFQQKPGQPPKVLIYSTSTRASGVPDRFTGSGSGTDFTLTISSLQAEDVAVYYCLQYYITPYTFGQGTKLEIK")
"4.5%"
>>> meas_value("MGC2 (antibody) VH: EVQLVESGGGLVQPGGSLRLSCAASGFTFSNFWMGWVRQTPGKGLEWVANIKEDGSEKYYVDSVRGRFTISRDSAKNSLYLQMNSLRAEDTAVYYCVRERFCSNHIHKEEHLPRPSISPEPGTVITLGSHVTFVCRGPVGVQTFRLEKDSRSTYNDTEDVSQPSPSESEARFRIDSVSEGYAGLYRCLYYKPPKWSEQSDYLELLVKGDDVTWALYPSCGGDGEASDYNMDVWGKGTTVTVSS VL: DIQMTQSPSTLSASVGDRVTISCRASQRFSGWLAWYQQKPGKAPNLLIYKASPLAGGGPSRFSGSGSGTDFTLTISSLQPDDSATYYCQHYSNYSYTFGQGTKLEIR")
"1.5%"
>>> meas_value("MGD30 (antibody) VH: QVQLQESGPGLVKPSETLSLSCAVTGGSITSSKWWTWVRQGPDKGLEWIGKIYHNGTTNYNPSLKSRVAMSVDKSRNQFSLRLTSVTAADTALYYCATASPFKSHHRTTEKLPRPSISAEPGTVIPLGSRVTFVCRGPVGVQTFRLERETSFTYNDTEDVSQVSPSESEARFRIDSVSEGYAGPYRCVYYKAPKWSEQSDYLDLLVKGEDVTWALTQPQLDPRACPQGDLRMSTDIYCMDVWGKGTTVTVSS VL: AIRLTQSPSSLSASIGDRVTITCRASQDISTFLAWYQQESGKAPRLLIFAASTLQTGVPSRFSGSGSGTDFTLTISGLQSEDFATYYCQQYYCFPPDFGQGTRLDIK")
"3.4%"
>>> meas_value("MGC17 (antibody) VH: EVQLVESGGGLVQPGGSLKLSCVASGFNFRKSWMSWVRQAPGKGLEWVANIREDGSKAYYVDSVKGRFTVSRDNAKNSLYLQINSLRADDTAVYYCARDRFCSDDEDHSHGAEDLPRPSISAEEGTVIPLGSRLTFVCRGPVGVHTFRLERDRRSTYNDTEDVSHPSPSESEARFRIDSVSEGNAGLYRCVYYKSPEWSKQSDYLELLVKGQEVTWALFTSCGGDGEVPDYDMDVRGKGTTVTVSS VL: DIVMTQSPDSLAVSLGERATINCKSSQSVLYRSKNKKYLAWFQQRPGQPPKVLIYWTSTRASGVPDRFSGSGSGTDFTLTISSLQADDVAVYYCQQYFIFPYTFGQGTKLEIR")
"1.6%"
